Assignment: determine reported inhibition at 5 µg/mL for the given compounds.
- System: L1210
- PROTOCOL_TEXT: In vitro anticancer MTT experiment
- Type: cell-based
- MEASUREMENT_SETUP: Mus musculus, concentration 5 ug/ml, 48 h or 72 h, read-out: inhibition ratio L1210
Numbers only, in %.

Example results:
O=C1/C(=C/Cl)SCc2ccccc21 [Compound 14] ... 78
Cc1ccc2c(c1)C(Cl)/C(=C/Cl)CS2 (stereo not drawn) [Compound 28] ... 79.4

I would be grateful if you could provide inhibition at 5 µg/mL for each of the following entries.
1. OC1/C(=C/Cl)SCc2ccccc21 (stereo not drawn) [Compound 20]
2. O=C1/C(=C\Cl)CSc2sccc21 [Compound 24]
3. O=C1/C(=C/Cl)CSc2ccc(Cl)cc21 [Compound 4]

1. 80.3
2. 85.4
3. 82.3

# lookup: inhibition at 5 µg/mL of O=C1/C(=C/Cl)CSc2ncccc21 [Compound 18]
76.8
